Recorded values, source ChEMBL document CHEMBL3433997.

Target: Glucose transporter (Leishmania mexicana) (UniProt O61059)
Assay: ST_JUDE_LEISH: Cytotoxicity at 2uM final concentration against transgenic Leishmania Mexicana promastigotes LmGT2 that are glucose transport deficient and complemented with the L. Mexicana glucose transporter 2. Activity is measured by DNA content using SYBR green in vitro
Format: functional
Recorded inhibition values for a group of compounds are listed next.
Dear colleague, please send the value followed by its unit.

>  <compound>
CCCc1cc(Cc2cnc(N)nc2N)cc(CCC)c1O

>  <assay-target>
Glucose transporter (Leishmania mexicana) (UniProt O61059)

>  <result>
1.49%

$$$$

Could you share which inhibition value was measured for `Fc1ccc(-c2cc3ncnc(N4CCN(CCN5CCCC5)CC4)c3s2)cc1` ?
11.1%

Would you mind doing `Cc1noc(C)c1-c1cccc(CNCc2cccc(-c3ccc(-c4nc5cccc(C)c5[nH]4)s3)c2)c1` as well?
2.66%

Would you mind doing `COc1cc(C(=O)NCCCN2CCN(c3cccc(Cl)c3)CC2)ccc1-c1nc2cc(Cl)c(F)cc2[nH]1` as well?
0.03%

Would you mind doing Cc1ccc(Nc2ccnc3cc(-c4nccs4)ccc23)cc1C(O)c1ccccc1 (stereo not given) as well?
3.72%

Would you mind doing Cc1ccc(Cn2ncc(N3CC(C)NC(C)C3)c(Cl)c2=O)cc1NC(=O)Nc1ccc(-c2ccccc2)cc1 (stereo not given) as well?
13.6%

---

Recorded inhibition values for a group of compounds are listed next.
Target: Solute carrier family 2, facilitated glucose transporter member 1 (Homo sapiens) (UniProt P11166)
Sequence (P11166 whole entry): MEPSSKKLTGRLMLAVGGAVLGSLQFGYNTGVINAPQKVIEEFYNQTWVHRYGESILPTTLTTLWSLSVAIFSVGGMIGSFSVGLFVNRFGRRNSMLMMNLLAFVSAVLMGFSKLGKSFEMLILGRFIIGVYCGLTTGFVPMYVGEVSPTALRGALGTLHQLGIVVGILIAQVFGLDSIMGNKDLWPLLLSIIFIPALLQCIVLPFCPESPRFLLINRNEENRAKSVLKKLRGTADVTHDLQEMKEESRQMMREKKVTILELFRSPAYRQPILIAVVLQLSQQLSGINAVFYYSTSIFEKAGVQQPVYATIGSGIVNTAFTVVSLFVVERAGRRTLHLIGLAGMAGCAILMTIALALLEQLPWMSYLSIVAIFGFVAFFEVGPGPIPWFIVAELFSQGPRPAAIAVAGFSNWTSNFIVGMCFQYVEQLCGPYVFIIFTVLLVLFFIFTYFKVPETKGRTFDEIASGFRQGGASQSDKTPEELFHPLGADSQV
Assay: ST_JUDE_LEISH: Cytotoxicity at 2uM final concentration against transgenic Leishmania Mexicana promastigotes LmGLUT1 that are glucose transport deficient and complemented with the human glucose transporter GLUT1. Activity is measured by DNA content using SYBR green in vitro
Type: functional
Dear colleague, please send the value followed by its unit.

Below are worked cases with known answers.
>  <compound>
O=C(Nc1cccc(OCc2ccccc2)c1)c1ccc(CN2CCC(Cc3ccccc3)CC2)cc1

>  <result>
-0.83%

$$$$
>  <compound>
COc1ccc2c(c1)CCCC2NCCCCNC(=O)c1ccc(NC(=O)c2ccc(Cl)cc2)cc1 (stereo not given)

>  <result>
1.92%

$$$$
>  <compound>
O=C(NCCCCN1CCC(c2ccc3c(c2OC(=O)c2ccc(NC(=O)c4ccc(Cl)cc4)cc2)CCCC3)CC1)c1ccc(NC(=O)c2ccc(Cl)cc2)cc1

>  <result>
3.25%

$$$$
>  <compound>
O=C(Nc1ccc(Cn2ncc(N3CCCNCC3)c(Cl)c2=O)cc1)Nc1cccc(SC(F)(F)F)c1

>  <result>
0.84%

$$$$

Next up:
Could you share which inhibition value was measured for `CCc1cc(C(=O)c2cccc(C)c2)c(NC(=O)CN2CCN(C(=O)c3ccco3)CC2)s1` ?
2.38%

---

Recorded inhibition values for a group of molecules are listed next.
Target: Hexose transporter 1 (Plasmodium falciparum) (UniProt O97467)
Assay: ST_JUDE_LEISH: Cytotoxicity at 2uM final concentration against transgenic Leishmania Mexicana promastigotes LmPfHT that are glucose transport deficient and complemented with the Plasmodium falciparum hexose transporter. Activity is measured by DNA content using SYBR green in vitro
Assay type: functional
Numeric only. Scale: %

>  <molecule>
Cc1nc2nc(N)nc(N)c2c(C)c1Cc1ccccc1I

>  <result-type>
inhibition

>  <measurement-units>
%

>  <result>
8.12

$$$$

What value of inhibition on Hexose transporter 1 (Plasmodium falciparum) (UniProt O97467) does `Brc1ccc(Nc2nc3ccccc3nc2Nc2ccc(Br)cc2)cc1` have?
6.78

Would you mind doing `CC(C)CC(=O)NC1CCN(Cc2c(-c3cccs3)nc3ccccc3c2C(=O)N[C@@H](C)C2CCCCC2)CC1` as well?
4.72

Would you mind doing `Cc1cc(N)c2cc(NC(=O)CCC(=O)Nc3ccc4nc(C)cc(N)c4c3)ccc2n1` as well?
6.01

Would you mind doing `O=C(Nc1ccc(Cn2ncc(N3CCCNCC3)c(Cl)c2=O)cc1)Nc1cccc(SC(F)(F)F)c1` as well?
1.25

Would you mind doing `O=C(Nc1cccc(-c2csc(-c3nc4ccccc4[nH]3)c2)c1)c1ccoc1` as well?
3.05

Would you mind doing `O=C(Nc1ccc(-c2nc3ccccc3[nH]2)cc1)c1cnc(Cl)c(Cl)c1` as well?
-0.34

Would you mind doing `Cc1cc(N)c2cc(NC(=O)c3cccc4ccccc34)ccc2n1` as well?
1.19

Would you mind doing `CCCN1CCN(CCNc2c3ccccc3nc3ccccc23)CC1` as well?
97.2
